Origin of the recorded values: patent US20100267712A1

# Test system: SMN2-linked luciferase-reporter gene construct
# method: SMN Splice Reporter Assay (SMN2-linked luciferase reporter)
# Format: cell-based
# details: cervical carcinoma cell lines, SMN2 splice luciferase reporter
# Excerpt: As previously discussed, SMN1 is the gene deleted in SMA patients; the SMN2 gene remains intact in both SMA and normal patients. […] Cervical carcinoma cell lines were transformed with a SMN2-linked luciferase-reporter gene construct. […] Luciferase sequences are in the correct translational reading frame only when the SMN2 sequences are spliced according to the normal SMN1 mechanism (e.g., splicing to include exon 7), which allows for translation of the stable SMN protein. […]
reported.endpoint: EC50 (nM)

P = COc1ccc2c(c1)C(=O)N(c1ccc3cn[nH]c3c1)C2
Q = COc1ccc2c(c1)C(=O)N(c1ccc3c(c1)CCCN3C)C2
R = Cn1ccc2ccc(N3Cc4ccc(N)cc4C3=O)cc21
S = Cc1ccc(N2Cc3cc4c(cc3C2=O)OCCO4)nc1
T = COc1ccc2c(c1)C(=O)N(c1ccc3scc(C)c3c1)C2
Give the order of the entries above, sorted from least to greatest EC50. API: response body holds the labels in the requested order.
Q, S, P, T, R
